Each recorded value in this set is attributed to patent US8785499B2.

- target: baNadD (Bacillus anthracis)
- Sequence (C3L5T6 whole entry, looked up): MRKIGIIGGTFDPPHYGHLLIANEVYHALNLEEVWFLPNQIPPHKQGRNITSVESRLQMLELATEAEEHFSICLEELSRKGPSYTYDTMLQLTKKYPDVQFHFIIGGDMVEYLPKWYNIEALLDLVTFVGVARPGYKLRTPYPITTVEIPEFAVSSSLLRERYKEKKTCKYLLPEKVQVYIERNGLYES
- measurement-description: biochemical
- Type: biochemical
Provide the recorded […]. anthracis for the entries that follow.
Give the value in % but do not write % after it.

Input: Returns the measured […]. anthracis for the input molecule. Input: O=C(Nc1ccc([N+](=O)[O-])cn1)c1sc2ccccc2c1Cl [compound 186]
Output: 9

Input: Returns the measured […]. anthracis for the input molecule. Input: COc1ccc(NS(=O)(=O)c2ccc(SC)cc2)cc1 [compound 103]
Output: 0

Input: Returns the measured […]. anthracis for the input molecule. Input: O=C(O)CCCCCN1C(=O)c2ccc(F)cc2C1=O [compound 024]
Output: 0

Input: Returns the measured […]. anthracis for the input molecule. Input: N#CC1=C(N)OC(c2cccs2)=C(C#N)C1c1cccs1 (centres unmarked) [compound 019]
Output: 27

Input: Returns the measured […]. anthracis for the input molecule. Input: CCC(NS(=O)(=O)c1ccc(OC)cc1)C(=O)O (centres unmarked) [compound 212]
Output: 32

Input: Returns the measured […]. anthracis for the input molecule. Input: CC(=O)Nc1ccc(OCC(=O)Nc2ccccc2)cc1 [compound 125]
Output: 0

Input: Returns the measured […]. anthracis for the input molecule. Input: NS(=O)(=O)c1ccc(/N=C/c2ccc(Cl)cc2Cl)cc1 [compound 118]
Output: 0

Input: Returns the measured […]. anthracis for the input molecule. Input: Cn1nnnc1SCC(=O)Nc1ccc(Br)cc1Cl [compound 108]
Output: 0

Input: Returns the measured […]. anthracis for the input molecule. Input: O=C(O)CNC(=S)N(Cc1ccccc1)Cc1cccs1 [compound 154]
Output: 0

Input: Returns the measured […]. anthracis for the input molecule. Input: NS(=O)(=O)c1ccc(N/C=C/C(=O)c2ccc(Cl)s2)cc1 [compound 021]
Output: 79

Input: Returns the measured […]. anthracis for the input molecule. Input: O=C(Nc1ccc(NC(=O)c2cccs2)cc1)c1ccccc1 [compound 020]
Output: 0

Input: Returns the measured […]. anthracis for the input molecule. Input: S=C(N/N=C/c1ccccc1Cl)Nc1cc(Cl)ccc1Cl [compound 002]
Output: 85

Input: Returns the measured […]. anthracis for the input molecule. Input: CS(=O)(=O)NCCOc1ccc(S(=O)(=O)NCc2ccccc2)cc1 [compound 179]
Output: 0

Input: Returns the measured […]. anthracis for the input molecule. Input: COC(=O)CSc1nnc(-c2ccc(Cl)cc2Cl)o1 [compound 274]
Output: 0

Input: Returns the measured […]. anthracis for the input molecule. Input: CC(=O)NC(=S)Nc1ccc(Cl)c(Cl)c1 [compound 244]
Output: 0

Input: Returns the measured […]. anthracis for the input molecule. Input: Br.Cn1ccnc1SCC(=O)c1ccccc1 [compound 113]
Output: 12

Input: Returns the measured […]. anthracis for the input molecule. Input: NS(=O)(=O)c1ccc2nc(NC(=O)CCc3ccccc3)sc2c1 [compound 140]
Output: 0

Input: Returns the measured […]. anthracis for the input molecule. Input: O=C(O)c1cc(C(=O)O)cc(N2C(=O)c3ccc(C(=O)O)cc3C2=O)c1 [compound 134]
Output: 0

Input: Returns the measured […]. anthracis for the input molecule. Input: Nc1nonc1C(=O)NCCNS(=O)(=O)Cc1ccccc1 [compound 051]
Output: 0

Input: Returns the measured […]. anthracis for the input molecule. Input: COCCNS(=O)(=O)c1ccc2c(c1)CCN2C(=O)CCC(=O)O [compound 196]
Output: 52
